System: T-47D breast
Experiment: NCI tumour cell line growth inhibition, 48 h
RESULT_TYPE: GI50

[[record]]
molecule = "COc1ccc(C2=NN(C(=O)c3cc(OC)c(OC)c(OC)c3)C(c3ccc(N(C)C)cc3)C2)cc1 (stereo not given)"
result = "535 nM"

[[record]]
molecule = "Oc1cc2ccccc2c(-c2c(O)c(O)cc3ccccc23)c1O"
result = "319 nM"

[[record]]
molecule = "CCCCCCCCn1ccc2cc(NC(=O)Cn3cc(CN4CCCCC4)nn3)ccc21"
result = "1990 nM"

[[record]]
molecule = "Cc1ccc(NC(=O)c2sc3nc4c(cc3c2N)C(=O)CCC4)cc1C"
result = "533 nM"

[[record]]
molecule = "COc1cc([C@@H]2C[C@H]2c2cc(SC)n[nH]2)cc(OC)c1OC"
result = "16500 nM"

